target-of-assay: MAST2, Q6P0Q8
Sequence (Q6P0Q8 1099-1202): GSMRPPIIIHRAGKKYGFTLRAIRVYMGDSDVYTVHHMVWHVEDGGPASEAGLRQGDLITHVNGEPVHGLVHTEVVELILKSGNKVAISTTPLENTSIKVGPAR
test-method-notes: holdup assay
Design: key: below the threshold = too weak to quantify, mostly under pKd 3.1 to 4
assay-context: plain residues with an end cap or a label only (N-terminal biotin on a linker: ado-ado)
recorded-endpoint: pKd
No unit in the answer, only the number.

### Prompt Tell me pKd reported for DDASLPVSDV [PLEKHA1, Q9HB21]
### Response 4.73

### Prompt Tell me pKd reported for QRPYRRGSEI [KCNJ18, B7U540]
### Response 4.1

### Prompt Tell me pKd reported for KRPEMTSSSV [MUC3A, MUC3B, Q02505;Q9H195]
### Response 4.77

### Prompt Tell me pKd reported for MQHQRTHTRV [ZSCAN30, Q86W11]
### Response 5.21

### Prompt Tell me pKd reported for DGVNEKVSCV [HTR2A, P28223]
### Response 4.52

### Prompt Tell me pKd reported for AAVENKVTDL [PLXNB1, O43157]
### Response 5.61

### Prompt Tell me pKd reported for SPDRDRESIV [SCN5A, Q14524]
### Response 4.53

### Prompt Tell me pKd reported for RSSGGDDFWF [KCNV1, Q6PIU1]
### Response 4.61

### Prompt Tell me pKd reported for ELSATVTTDC [TRIP6, Q15654]
### Response 4.9

### Prompt Tell me pKd reported for TISFTQTSQF [SLC1A1, P43005]
### Response 4.89

### Prompt Tell me pKd reported for QKAPTKEFYA [SDC2, P34741]
### Response 3.82

### Prompt Tell me pKd reported for EDGESWEYQI [TRPV6, Q9H1D0]
### Response 4.78

### Prompt Tell me pKd reported for LPAVCYDIDI [PTTG2, Q9NZH5]
### Response 5

### Prompt Tell me pKd reported for NIAESLESLV [PTPRZ1, P23471]
### Response 4.79

### Prompt Tell me pKd reported for QSYPSKHDYV [CLDN18, P56856]
### Response 3.87

### Prompt Tell me pKd reported for SVTSERETNI [SLC16A7, O60669]
### Response 4.84

### Prompt Tell me pKd reported for ILRKSTTTTV [PRR16, Q569H4]
### Response 5.05
